Organism: Rattus norvegicus
assay method text: DrugMatrix - Regimen: Daily Repeat
Assay type: toxicity, organism-based, Sprague-Dawley
Parameters: regimen Daily Repeat, gender Male, age 6-8 weeks
condition label: in vivo, po, 50 mg/kg, 72 h, tissue Blood, route oral GAVAGE, dose level Low, time 3 day, vehicle .5 % CMC
result type: LYMPHOCYTE (%)
Field: numeric (%). Do not append units.

For orientation, consider the following solved cases.
CCN1CCC[C@H]1CNC(=O)c1cc(S(N)(=O)=O)ccc1OC [LEVOSULPIRIDE]	87
CN(C)[C@@H]1C(O)=C(C(N)=O)C(=O)[C@@]2(O)C(O)=C3C(=O)c4c(O)ccc(Cl)c4[C@@](C)(O)[C@H]3C[C@@H]12 [CHLORTETRACYCLINE]	89
NC1CCN(c2nc3c(cc2F)c(=O)c(C(=O)O)cn3-c2ccc(F)cc2F)C1 (centres undefined) [TOSUFLOXACIN]	90

Switching to the query record.
// LYMPHOCYTE lookup, key: Cc1cccc(C)c1OCC(C)N (centres undefined) [MEXILETINE]
92.33

---

Organism: Rattus norvegicus
assay method text: DrugMatrix - Regimen: Daily Repeat
Format: toxicity, organism-based, Sprague-Dawley
Design: regimen Daily Repeat, gender Male, age 6-8 weeks
condition label: in vivo, po, 0 mg/kg, 72 h, tissue Plasma, route oral GAVAGE, dose level Control, time 3 day, vehicle 100 % WATER
CHOLESTEROL values for the molecules below.
Don't forget the unit after the number, please.

CS(=O)(=O)c1ccc([C@@H](O)[C@@H](CO)NC(=O)C(Cl)Cl)cc1	68.67 mg/dL
CC(C)NCC(O)c1ccc(NS(C)(=O)=O)cc1 (stereo unspecified)	68.83 mg/dL
CCN(CC)CCNC(=O)c1cc(S(C)(=O)=O)ccc1OC [TIAPRIDE]	68.67 mg/dL
Cc1ccc(NC(=O)c2ccc(CN3CCN(C)CC3)cc2)cc1Nc1nccc(-c2cccnc2)n1	68.67 mg/dL
CN(C)CC[C@@H](c1ccc(Cl)cc1)c1ccccn1	69 mg/dL

// CHOLESTEROL lookup, key: O.O.O.O.O.O.[Cl-].[Cl-].[Sr+2] [STRONTIUM CHLORIDE HEXAHYDRATE]
68.67 mg/dL

---

Organism: Rattus norvegicus
assay method text: DrugMatrix - Regimen: Daily Repeat
Format: toxicity, organism-based, Sprague-Dawley
Set-up: regimen Daily Repeat, gender Male, age 6-8 weeks
condition label: in vivo, po, 0 mg/kg, 72 h, tissue Blood, route oral GAVAGE, dose level Control, time 3 day, vehicle 100 % WATER
result type: ABSOLUTE MONOCYTE

For orientation, consider the following solved cases.
C[C@]12C=CC(=O)C=C1CC[C@@H]1[C@@H]2[C@@H](O)C[C@@]2(C)[C@H]1CC[C@]2(O)C(=O)CO	76 CELLS/uL
Cc1ccc(NC(=O)c2ccc(CN3CCN(C)CC3)cc2)cc1Nc1nccc(-c2cccnc2)n1	109.5 CELLS/uL
CN(C)CCOC(c1ccccc1)c1ccccc1 [DIPHENHYDRAMINE]	166 CELLS/uL
CN1[C@@H]2CC[C@H]1C[C@@H](OC(=O)C(CO)c1ccccc1)C2 (stereo partly drawn)	72.17 CELLS/uL
NNc1nncc2ccccc12 [HYDRALAZINE]	166 CELLS/uL

// ABSOLUTE MONOCYTE lookup, key: CN(C)CC[C@@H](c1ccc(Cl)cc1)c1ccccn1
169 CELLS/uL

// ABSOLUTE MONOCYTE lookup, key: O.O.O.O.O.O.[Cl-].[Cl-].[Sr+2] [STRONTIUM CHLORIDE HEXAHYDRATE]
109.5 CELLS/uL

// ABSOLUTE MONOCYTE lookup, key: Cn1c(=O)c2[nH]cnc2n(C)c1=O.O
121 CELLS/uL
